# TEST SYSTEM: T1, CD71 apical domain (human, UniProt P02786 189-383, limits assumed)
# T1 construct: domain: apical domain
# T1 sequence (P02786 189-383 limits assumed): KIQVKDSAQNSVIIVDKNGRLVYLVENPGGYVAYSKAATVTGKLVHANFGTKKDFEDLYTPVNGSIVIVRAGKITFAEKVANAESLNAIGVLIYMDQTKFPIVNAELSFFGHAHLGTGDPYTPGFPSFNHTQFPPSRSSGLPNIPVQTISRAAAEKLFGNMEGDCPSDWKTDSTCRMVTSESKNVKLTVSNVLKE
# ASSAY METHOD TEXT: solution ELISA screen (luminescence)
READOUT LABEL: RLU (RLU)
A number alone suffices; assume RLU.

# input # lookup: RLU of SEQ ID NO 233 (designed binder, not shown: small tags and cut ends) MLPAPKNLVVSRVTEDSARLSWTAPDAAFDSFYIAYAEPRPDGEAIQLFVPGSERSYDLTGLKPGTEYSVLIHGVKGGLLSSPLKAYFTT
# output 5.61e+06

# input # lookup: RLU of SEQ ID NO 238 (designed binder, not shown: small tags and cut ends) MLPAPKNLVVSRVTEDSARLSWTTPDAAFDSFYIAYAEPRPDGEAIRLQVPGSERSYDLTGLKPGTEYSVLIHGVKGGLLSSPLGFTT
# output 112000

# input # lookup: RLU of SEQ ID NO 217 (designed binder, not shown: small tags and cut ends) MLPAPKNLVVSRVTEDSARLSWTAPDAAFDSFYIAYAEPRPDGEAIILEVPGSERSYDLTGLKPGTEYSVLIHGVKGGLLSSPLRAVFTT
# output 6.81e+06

Ref: patent US20220332795A1
